biological target: human GLP-1 receptor (human, UniProt P43220 24-463); assay: cell-based or functional assay
Numbered stars: 1 amine (or outer) side, 2 acyl side, 3 side chain; on linkers, the order of the positions; unused ones are H or OH. Square brackets hold non-standard residues; d marks the D form. Side chains are listed from the residue outwards. * marks the point of attachment. C18 diacid = O=C(O)CCCCCCCCCCCCCCCCC(=O)*; γGlu = O=C(O)[C@H](CCC(=O)[*:2])N[*:1]; Chem. 27 = not defined here; AEEA = NCCOCCOCC(=O)O; Aib = CC(C)(N)C(=O)O
Readings of hGLP-1R Potency, no HSA, EC50 [pM] for the listed binders

# binder, hGLP-1R Potency, no HSA, EC50 [pM] / pM
records = [
    ("Compound 83 (peptide) peptide: H[Aib]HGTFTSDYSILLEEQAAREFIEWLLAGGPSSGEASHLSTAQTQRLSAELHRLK([AEEA-AEEA-γGlu-C18 diacid])TLPRTETGSGSP-NH2", 2.3),
    ("Compound 104 (reading uncertain) peptide: H[Aib]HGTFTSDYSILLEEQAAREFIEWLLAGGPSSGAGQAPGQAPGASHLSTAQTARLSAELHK(Chem. 27)LATLPRTETGSGSP-NH2", 4.16),
]
